- experimentalTarget: fusion protein PRY
- Sequence (chain, as listed by the source): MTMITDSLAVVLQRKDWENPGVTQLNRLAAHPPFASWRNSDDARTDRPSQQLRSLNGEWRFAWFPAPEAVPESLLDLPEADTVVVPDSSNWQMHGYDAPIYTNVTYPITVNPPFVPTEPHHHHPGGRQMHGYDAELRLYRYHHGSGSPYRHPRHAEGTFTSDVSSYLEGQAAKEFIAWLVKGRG
measuredParameter: relative cleavage efficiency

## Task Tell us which relative cleavage efficiency value is on record for OmpT protease variant OmpT D97S (protein) STETLSFTPDNINADISLGTLSGKTKERVYLAEEGGRKVSQLDWKFNNAAIIKGAINWDLMPQISIGAAGWTTLGSRGGNMVDQDWMDSSNPGTWTSESRHPDTQLNYANEFDLNIKGWLLNEPNYRLGLMAGYQESRYSFTARGGSYIYSSEEGFRDDIGSFPNGERAIGYKQRFKMPYIGLTGSYRYEDFELGGTFKYSGWVESSDNDEHYDPGKRITYRSKVKDQNYYSVAVNAGYYVTPNAKVYVEGAWNRVTNKKGNTSLYDHNNNTSDYSKNGAGIENYNFITTAGLKYTF
## Result < 3%
